Reference source: PubChem BioAssay

Some compounds, each annotated with its measured composite z-score.
system: Sonic hedgehog protein (Shh); test: Sonic hedgehog microarray binding compounds – biochemical, small-molecule microarray, 635/667 nm fluorescence, primary screen (AID 1151); details: 635 nm fluorescence, higher = more signal;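 further: Shh protein binding to compounds spotted on small-molecule microarray slides; score combines spot fluorescence intensity with signal-to-noise across triplicate slides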

Would you please look over these solved cases?
Compound	Measure name	Reported measurement
CC(C)C(O)C1C=CC2C(=O)N(c3ccccc3)C(=O)C2N1Nc1ccccc1 (stereo not drawn)	composite z-score	1.04
CC1CC/C=C\[C@H]2OC34C=CCN(c5ccc(Cl)cc5)C(=O)[C@H]3N(C(C)CO)C(=O)[C@]4(C)C2C(=O)O1 (stereo partly drawn)	composite z-score	-0.374

Please turn your attention to the following entry.
Q) Identify measured composite z-score associated with COCCOC(=O)N1C(=O)[C@@]2(c3ccccc31)[C@H](C(=O)NC[C@H](O)c1ccccc1)[C@H]1C(=O)O[C@H](c3ccccc3)[C@H](c3ccccc3)N1[C@@H]2c1ccc(O)cc1
A) 1.74

====

experiment: probe aNog binding to arrayed compounds – biochemical, biotinylated probe, 635/667 nm fluorescence, primary screen (AID 1115); conditions: small-molecule microarray, higher = more signal;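 further: probe is biotinylated aNog protein used at 0.15 µg/mL for 1 h at 4 C; z-score combines 667 nm fluorescence of each spot with its signal to noise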
Values of composite z-score greater than or equal to -0.1 map to Yes; values below map to No.

Consider the worked cases shown below.
Compound	Label
CC(C)C(CO)N1C(=O)[C@@H]2C3C(=O)OCCC/C=C\[C@H]3OC23C=CCN(Cn2nnc4ccccc42)C(=O)[C@@H]13 (stereo not given in full)	Yes
CCOc1cc(C(O)C2C=CC3C(=O)NC(=O)C3N2Nc2ccc(Cl)cc2Cl)ccc1O (stereo not given)	Yes
COc1ccc([Si](C)(C)[C@@H]2[C@@H](CCO)O[C@]3(C(=O)N(Cc4ccccc4)c4ccc(NC(=O)[C@H](C)O)cc43)[C@H]2C)cc1	Yes
COC(=O)C1=CC(CCCO)=CC(c2ccc(CN3CCCC3)cc2)N(Cc2cccc(OC(F)(F)F)c2)C=C1C(=O)OC (stereo not given)	Yes
COCC(=C=CC[C@H](O)c1ccccc1OCCO)C[C@H](O)c1ccccn1	No
CC1CC/C=C\[C@H]2OC34C=CCN(Cc5ccccc5)C(=O)[C@H]3N(C(CO)C(C)C)C(=O)[C@@H]4C2C(=O)O1 (stereo not given in full)	No

Q) Can [N-]=[N+]=Nc1ccccc1C[C@@]1(C(=O)N2CCOCC2)N=C(c2ccc(OCCCO)cc2)O[C@@H]1c1ccccc1 be said to have composite z-score at or above -0.1?
A) No

Q) Answer whether composite z-score of Cc1ccc(S[C@]2(C(=O)NC(C)C)CC(=O)N(Cc3cc(C(F)(F)F)cc(C(F)(F)F)c3)[C@@H]2c2ccc(CO)cc2)cc1 is greater than or equal to -0.1.
A) No

Q) Quick check: does O=C1C2C=CC(C(O)C3CC=CCC3)N(Nc3ccccc3)C2C(=O)N1c1ccccc1 (stereo not given) have composite z-score greater than or equal to -0.1?
A) Yes

Q) Given the entry O=C1N(Cc2ccccc2)c2ccccc2C[C@]12N=C(c1ccc(OCCCO)cc1)O[C@@H]2c1ccccc1 , answer whether its composite z-score meets or surpasses -0.1.
A) No

====

experiment: small molecules captured by biotinylated probe aFST – biochemical, small-molecule microarray, fluorescence 635/667, stem cell growth factor project, primary screen (AID 1086); settings: higher = more signal;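 further: score merges 667 nm fluorescence with signal-to-noise of each printed compound spot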
Given measured composite z-score, output met if it is greater than or equal to 0.2 and not met if not.

Please review the following examples before continuing.
Molecule	Label
NCCCCCNC(=O)[C@@H]1C[C@@H]2C(=O)N[C@@H](CCCCN)C(=O)N2[C@@H]1c1ccc(O)cc1	met
COc1ccc([Si](C)(C)[C@H]2[C@H](CC(=O)N3CCC[C@H]3CO)O[C@@]3(C(=O)N(Cc4ccc(N5CCOC5=O)cc4)c4ccccc43)[C@@H]2C)cc1	met
COCCCNC(=O)[C@@]1(Sc2ccc(C)cc2)CC(=O)N(C2Cc3ccccc3C2)[C@@H]1c1ccc(CO)cc1	not met
COCCOC(=O)N1C(=O)[C@@]2(c3ccccc31)[C@H](C(=O)NC[C@H](O)c1ccccc1)[C@H]1C(=O)O[C@H](c3ccccc3)[C@H](c3ccccc3)N1[C@@H]2c1ccc(O)cc1	met
COc1cc(NN2C(C(O)c3ccc(N(C)C)cc3)C=CC3C(=O)N(c4ccccc4)C(=O)C32)cc(OC)c1OC (stereo not given)	met

Q) Assess whether reported composite z-score for COc1ccc(C#Cc2ccc3c(c2)[C@]2(C(=O)N3)[C@H](C(=O)O)[C@H]3C(=O)O[C@H](c4ccccc4)[C@H](c4ccccc4)N3[C@@H]2c2ccc(O)cc2)cc1 sits at 0.2 or higher.
A) not met

Q) Please tell me: is the molecule C=CCNC(=O)[C@@H]1[C@H]2C(=O)O[C@H](c3ccccc3)[C@H](c3ccccc3)N2[C@H](c2ccccc2OCCO)[C@@]12C(=O)N(C(=O)OCCOC)c1ccc(C#CC3(O)CCCCCC3)cc12 at or over 0.2 in terms of composite z-score?
A) met

Q) Please check the record [N-]=[N+]=Nc1ccccc1C[C@]1(C(=O)NCCN2CCOCC2)COC(c2ccc(OCCCO)cc2)=N1 and state if its composite z-score is at or above 0.2.
A) not met

Q) Assess whether reported composite z-score for CCN(CC)c1ccc(N2CC=CC34O[C@@H]5/C=C\CCCOC(=O)C5[C@H]3C(=O)N(C(C)CO)[C@@H]4C2=O)cc1 (stereo not given in full) sits at 0.2 or higher.
A) not met

====

# reported composite z-score; entries follow
test: compounds binding Alexa647 anti-His antibody – biochemical, small-molecule microarray, 635 nm fluorescence, artefact control for SMM control protein annotation, primary screen (AID 1128); details: higher = more signal;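 further: score merges feature fluorescence with signal-to-noise for each printed compound spot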
No unit in the answer, please; the number alone is enough.

Compound	Measure name	Reported measurement
O=C1OCCC=C[C@H]2OC34C=CCN(Cn5nnc6ccccc65)C(=O)[C@H]3N(CCCO)C(=O)[C@@H]4C12 (some centres undefined)	composite z-score	-0.0275
COC(=O)[C@@]1(Cc2ccccc2)[C@H]2c3cc(C(=O)N(C)C)n(Cc4ccc(C)o4)c3C[C@H]2CN1C(=O)c1ccccc1	composite z-score	2.6
O=C1NC(=O)C2C1C=CC(C(O)c1ccco1)N2Nc1ccc(Cl)cc1Cl (centres undefined)	composite z-score	0.478

Next compound, composite z-score to be filled in.
Q) Please give the documented composite z-score of CN1C2C=C(CCCO)C(C3C(=O)N(C(N)=O)C(=O)C32)C1C1CC1 (centres undefined)
A) 0.352

====

Reported composite z-score by item:
test: small molecules captured by biotinylated probe aFGF2 – biochemical, small-molecule microarray, fluorescence 635/667, stem cell growth factor project, primary screen (AID 1067); settings: higher = more signal;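 further: measures binding of biotinylated aFGF2 protein to printed compounds on slides; z-score merges feature fluorescence and signal-to-noise across triplicate slides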
Keep the answer to the number alone.

Chemical smiles	composite z-score
CC(C)C[C@@H]1NC(=O)[C@@H]2C[C@H](C(=O)NCCCCCCN)[C@H](c3cccc(OCCO)c3)N2C1=O	0.107
CCCNC(=O)[C@@]1(C)c2ccccc2C(=O)N(c2ccc(C)cn2)[C@H]1c1ccc(CO)cc1	-0.0692

Pending compound:
Q) Return composite z-score (reported value) for this compound: CC(C)[Si](C#CCCCC#N)(O[C@H](c1ccccc1)c1cn(Cc2ccccc2)nn1)C(C)C
A) -0.0728

====

test: binders of probe aHhip on microarray, primary screen, stem cell growth factor project, biochemical, small-molecule microarray, fluorescence 635/667 (AID 1087); conditions: higher = more signal;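 further: score merges spot fluorescence at 667nm with spot signal to noise ratio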
Measure name: composite z-score
Just the number, please, no unit after it.

Check out these entries, answers already filled in.
Compound	composite z-score
COCCOC(=O)N1C(=O)[C@@]2(c3cc(C#CCNC(N)=O)ccc31)[C@H](C(N)=O)[C@H]1C(=O)O[C@H](c3ccccc3)[C@H](c3ccccc3)N1[C@@H]2c1ccccc1OCCO	0.107
COC(=O)C1=CC(CCCO)=CC(c2cccs2)N(C)C=C1C(=O)OC (configuration not stated)	-0.0994
CCOC(=O)C[C@H]1[C@H](OC(=O)Cc2ccc3c(c2)OCO3)[C@@H](NC(=O)c2ccc3ccccc3n2)c2cc(OCCCO)ccc2N1C(=O)c1ccccc1	-0.069
COCC(=C=CC[C@H](O)c1ccccc1OCCO)C[C@H](O)c1ccccn1	-0.0994

Moving on to another compound below.
Q) Dear colleague, please send me the reported composite z-score for CC#CCO[Si](C#Cc1ccccc1)(C(C)C)C(C)C when you can.
A) -0.134

====

test: compound effects on lung adenocarcinoma cell viability – A549, calcein-AM fluorescence, 48 h, basal, profiling panel (AID 1162); details: higher = more signal; further: test concentration not given here
Class definitions on z-score: label 0 (below -0.6), label 1 (-0.6 to below 0.2), label 2 (0.2 or more)

Before answering, review these 3 worked examples.
Compound	Label
[N-]=[N+]=Nc1ccccc1C[C@@]1(C(=O)N2CCOCC2)N=C(c2ccc(OCCCO)cc2)O[C@@H]1c1ccccc1	label 2
O=C1N(Cc2ccccc2)c2ccccc2C[C@]12N=C(c1ccc(OCCCO)cc1)O[C@@H]2c1ccccc1	label 0
CC(C)C(O)C1C=CC2C(=O)N(c3ccccc3)C(=O)C2N1Nc1ccccc1 (stereo not drawn)	label 0

Q) For CCOC(=O)C[C@H]1[C@H](OC(=O)c2ccccc2-c2ccccc2)[C@@H](NC(=O)c2ccc3ccccc3n2)c2cc(OCCCO)ccc2N1C(=O)Cc1ccc(OC)cc1 , which z-score bin applies?
A) label 2

Q) Each compound maps to one class by z-score. Which class for CCCCC[C@H]1OC[C@@]23C=C(Br)[C@@H](CC12)[C@@]1(CO1)C3=O (stereo partly drawn) ?
A) label 2

Q) // return the class label for O=C(NCc1ccc(F)cc1)[C@H]1C[C@H]2C(=O)NCC(=O)N2[C@H]1c1ccc(O)cc1
A) label 1

Q) Class (by measured z-score) for OCCCC1=CC(c2ccc(CN3CCCC3)cc2)N(Cc2cc3c(cc2Br)OCO3)CC1 (stereo not drawn)
A) label 0

Q) Which z-score category applies to Cc1ccc(NN2C(C(O)c3c(F)cccc3Cl)C=CC3C(=O)N(C4CCCCC4)C(=O)C32)cc1 (stereo not drawn) here?
A) label 2

Q) Assign a category based on measured z-score for Cc1ccc(N2C(=O)c3ccccc3[C@@H](C(=O)NCCCN(C)C)[C@@H]2c2ccc(CO)cc2)nc1 and give only the class name.
A) label 1

Q) Sort COc1ccc(C#Cc2ccc3c(c2)[C@]2(C(=O)N3)[C@H](C(=O)O)[C@H]3C(=O)O[C@H](c4ccccc4)[C@H](c4ccccc4)N3[C@@H]2c2ccc(O)cc2)cc1 into one of the categories.
A) label 1

Q) Class for Cc1ccc(S[C@]2(C(=O)NCCN3CCOCC3)CC(=O)N(Cc3ccccc3Cl)[C@@H]2c2ccc(CO)cc2I)cc1 ?
A) label 2
